# SYSTEM TESTED: Serine/threonine-protein kinase/endoribonuclease IRE1 (Homo sapiens, UniProt O75460)
# Sequence (O75460 whole entry): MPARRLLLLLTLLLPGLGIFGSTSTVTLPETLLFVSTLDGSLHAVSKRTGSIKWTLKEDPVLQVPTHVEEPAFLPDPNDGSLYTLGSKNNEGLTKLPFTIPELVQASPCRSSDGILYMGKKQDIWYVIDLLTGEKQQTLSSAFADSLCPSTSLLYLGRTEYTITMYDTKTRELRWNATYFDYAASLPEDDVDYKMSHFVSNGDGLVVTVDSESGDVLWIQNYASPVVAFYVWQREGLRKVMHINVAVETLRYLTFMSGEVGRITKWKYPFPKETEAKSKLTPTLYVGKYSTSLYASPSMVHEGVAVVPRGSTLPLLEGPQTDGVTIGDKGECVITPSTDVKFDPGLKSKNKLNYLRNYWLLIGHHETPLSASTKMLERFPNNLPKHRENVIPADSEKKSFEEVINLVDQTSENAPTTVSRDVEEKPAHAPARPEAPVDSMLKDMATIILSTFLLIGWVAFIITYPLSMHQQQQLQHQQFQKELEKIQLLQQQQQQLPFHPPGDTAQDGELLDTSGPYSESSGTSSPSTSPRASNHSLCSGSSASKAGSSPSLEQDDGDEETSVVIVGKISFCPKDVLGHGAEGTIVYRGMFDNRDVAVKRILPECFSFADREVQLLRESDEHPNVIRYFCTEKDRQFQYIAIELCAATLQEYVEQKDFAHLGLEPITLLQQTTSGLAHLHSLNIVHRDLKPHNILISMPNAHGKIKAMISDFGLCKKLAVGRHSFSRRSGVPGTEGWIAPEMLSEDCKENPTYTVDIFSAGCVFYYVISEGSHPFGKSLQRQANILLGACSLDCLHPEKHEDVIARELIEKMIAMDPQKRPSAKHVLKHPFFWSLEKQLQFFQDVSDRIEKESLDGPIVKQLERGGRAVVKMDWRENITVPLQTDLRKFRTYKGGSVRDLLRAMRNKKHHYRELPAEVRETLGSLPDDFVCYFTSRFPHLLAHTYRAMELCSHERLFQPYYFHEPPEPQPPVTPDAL
# ASSAY COMMENT: Inhibition of IRE1alpha in human KMS-11 cells assessed as reduction in XBP1 splicing preincubated for 24 hrs followed by thapsigargin addition and measured after 30 mins by luminescence assay
# Type: cell-based
MEASURED ATTRIBUTE: IC50 (nM)

{"columns": ["SMI", "MEASURED ATTRIBUTE", "QUANTITATIVE RESULT"],
 "data": [
  ["O=S(=O)(Cc1ccccc1)Nc1c(F)cc(Oc2ncccc2-c2ccnc(N[C@@H]3CNC[C@@H](F)C3)n2)c(F)c1F", "IC50", 64]
]}

---

# SYSTEM TESTED: Serine/threonine-protein kinase/endoribonuclease IRE1 (Homo sapiens, UniProt O75460)
# ASSAY COMMENT: Inhibition of IRE1alpha RNase activity (unknown origin) using XBP1 as substrate preincubated for 1 hr followed by thapsigargin stimulation for 5 hrs by One-Glo luciferase reagent based luminescence assay
Each record gets a class by IC50: lowest: < 40 nM; middle: ≥ 40 nM and < 300 nM; highest: ≥ 300 nM

{"columns": ["COMPOUND", "SYSTEM TESTED", "CATEGORY"],
 "data": [
  ["O=S(=O)(Cc1ccccc1)Nc1c(F)cc(Oc2ncccc2-c2ccnc(N[C@@H]3CNC[C@@H](F)C3)n2)c(F)c1F", "Serine/threonine-protein kinase/endoribonuclease IRE1 (Homo sapiens, UniProt O75460)", "lowest"],
  ["Cc1c(Oc2ncccc2-c2ccnc(N[C@H]3CCCNC3)n2)cc(F)c(NS(=O)(=O)Cc2ccccc2)c1F", "Serine/threonine-protein kinase/endoribonuclease IRE1 (Homo sapiens, UniProt O75460)", "lowest"],
  ["Cc1ccc2c(NS(=O)(=O)c3ccccc3Cl)cccc2c1Oc1ncccc1-c1ccnc(N[C@H]2CCCOC2)n1", "Serine/threonine-protein kinase/endoribonuclease IRE1 (Homo sapiens, UniProt O75460)", "highest"],
  ["C[C@@]1(F)CNC[C@@H](Nc2nccc(-c3cccnc3Oc3cc(F)c(NS(=O)(=O)Cc4ccccc4)c(F)c3F)n2)C1", "Serine/threonine-protein kinase/endoribonuclease IRE1 (Homo sapiens, UniProt O75460)", "lowest"],
  ["Cc1ccc2c(NS(=O)(=O)C3CCCC3)cccc2c1Oc1ncccc1-c1ccnc(N[C@H]2CCCNC2)n1", "Serine/threonine-protein kinase/endoribonuclease IRE1 (Homo sapiens, UniProt O75460)", "middle"],
  ["Cc1ccc2c(NS(=O)(=O)c3ccccc3Cl)cccc2c1Oc1ncccc1-c1ccnc(N)n1", "Serine/threonine-protein kinase/endoribonuclease IRE1 (Homo sapiens, UniProt O75460)", "highest"],
  ["Cc1ccc2c(NS(=O)(=O)c3ccccc3Cl)cccc2c1Oc1ncccc1-c1ccnc(Nc2cn[nH]c2)n1", "Serine/threonine-protein kinase/endoribonuclease IRE1 (Homo sapiens, UniProt O75460)", "highest"],
  ["Cc1ccc2c(NS(=O)(=O)C3CCCCC3)cccc2c1Oc1ncccc1-c1ccnc(N[C@H]2CCCNC2)n1", "Serine/threonine-protein kinase/endoribonuclease IRE1 (Homo sapiens, UniProt O75460)", "middle"],
  ["Cc1ccc2c(NS(=O)(=O)c3ccccc3Cl)cccc2c1Oc1ncccc1-c1ccnc(NC2CCC(=O)NC2)n1 (stereo unspecified)", "Serine/threonine-protein kinase/endoribonuclease IRE1 (Homo sapiens, UniProt O75460)", "highest"],
  ["O=S(=O)(Cc1ccccc1)Nc1ccc(Oc2ncccc2-c2ccnc(N[C@H]3CCCNC3)n2)c(F)c1F", "Serine/threonine-protein kinase/endoribonuclease IRE1 (Homo sapiens, UniProt O75460)", "middle"],
  ["Cc1ccc2c(NS(=O)(=O)CCC(F)(F)F)c(F)ccc2c1Oc1ncccc1-c1ccnc(N[C@H]2CCCNC2)n1", "Serine/threonine-protein kinase/endoribonuclease IRE1 (Homo sapiens, UniProt O75460)", "lowest"],
  ["Cc1cc(NS(=O)(=O)Cc2ccccc2)ccc1Oc1ncccc1-c1ccnc(N[C@H]2CCCNC2)n1", "Serine/threonine-protein kinase/endoribonuclease IRE1 (Homo sapiens, UniProt O75460)", "highest"],
  ["CC(C)(C)c1nc(-c2ccc(NC(=O)Nc3cccc(C(F)(F)F)c3)c3ccccc23)c2c(N)nccn12", "Serine/threonine-protein kinase/endoribonuclease IRE1 (Homo sapiens, UniProt O75460)", "middle"],
  ["Cc1ccc2c(Oc3ncccc3-c3ccnc(N[C@H]4CCCNC4)n3)c(C)ccc2c1NS(=O)(=O)CCC(F)(F)F", "Serine/threonine-protein kinase/endoribonuclease IRE1 (Homo sapiens, UniProt O75460)", "middle"]
]}

---

# ASSAY COMMENT: Cmax in Sprague-Dawley rat at 500 mg/kg, po administered twice daily for 7 days
# Type: ADME, organism-based
# CONDITION LABEL: in vivo, time 7 day

{"columns": ["SMI", "Cmax [µg/mL]"],
 "data": [
  ["O=S(=O)(Cc1ccccc1)Nc1c(F)cc(Oc2ncccc2-c2ccnc(N[C@@H]3CNC[C@@H](F)C3)n2)c(F)c1F", 104]
]}

---

# ASSAY COMMENT: Cmax in Sprague-Dawley rat at >= 150 mg/kg, po administered twice daily for 7 days
# Type: ADME, organism-based
# CONDITION LABEL: in vivo, time 7 day
MEASURED ATTRIBUTE: Cmax (ng/mL)

{"columns": ["SMI", "QUANTITATIVE RESULT"],
 "data": [
  ["O=S(=O)(Cc1ccccc1)Nc1c(F)cc(Oc2ncccc2-c2ccnc(N[C@@H]3CNC[C@@H](F)C3)n2)c(F)c1F", 28900]
]}

---

# SYSTEM TESTED: Serine/threonine-protein kinase/endoribonuclease IRE1 (Homo sapiens, UniProt O75460)
# ASSAY COMMENT: Inhibition of IRE1alpha in human KMS-11 cells assessed as reduction in XBP1 splicing preincubated for 24 hrs followed by thapsigargin addition and measured after 30 mins under FCS medium by luminescence assay
# Assay type: cell-based

{"columns": ["SMI", "READING UNIT", "IC50"],
 "data": [
  ["O=S(=O)(Cc1ccccc1)Nc1c(F)cc(Oc2ncccc2-c2ccnc(N[C@@H]3CNC[C@@H](F)C3)n2)c(F)c1F", "nM", 8]
]}

---

# SYSTEM TESTED: Serine/threonine-protein kinase/endoribonuclease IRE1 (Homo sapiens, UniProt O75460)
# ASSAY COMMENT: Inhibition of IRE1alpha RNase activity (Q470 to L977 residues) (unknown origin) expressed in Sf9 cells using mini-XBP-1 stem-loop RNA as substrate measured every 2 mins interval for 50 mins by FRET assay

{"columns": ["SMI", "READING UNIT", "IC50"],
 "data": [
  ["Cc1cc(Oc2ncccc2-c2ccnc(N[C@H]3CCCNC3)n2)c(F)c(F)c1NS(=O)(=O)Cc1ccccc1", "µM", 0.0045],
  ["O=S(=O)(Cc1ccccc1)Nc1ccc(Oc2ncccc2-c2ccnc(N[C@H]3CCCNC3)n2)c(F)c1F", "µM", 0.0029],
  ["Cc1ccc2c(NS(=O)(=O)C3CCCCC3)cccc2c1Oc1ncccc1-c1ccnc(N[C@H]2CCCNC2)n1", "µM", 0.017],
  ["Cc1c(Oc2ncccc2-c2ccnc(N[C@H]3CCCNC3)n2)cc(F)c(NS(=O)(=O)Cc2ccccc2)c1F", "µM", 0.029],
  ["Cc1ccc2c(NS(=O)(=O)CCC(F)(F)F)cccc2c1Oc1ncccc1-c1ccnc(N[C@H]2CCCNC2)n1", "µM", 0.0087],
  ["Cc1cc(NS(=O)(=O)Cc2ccccc2)ccc1Oc1ncccc1-c1ccnc(N[C@H]2CCCNC2)n1", "µM", 0.17],
  ["Cc1ccc2c(NS(=O)(=O)CCC3CC3)cccc2c1Oc1ncccc1-c1ccnc(N[C@H]2CCCNC2)n1", "µM", 0.019],
  ["Cc1ccc2c(NS(=O)(=O)CC3CCCCC3)cccc2c1Oc1ncccc1-c1ccnc(N[C@H]2CCCNC2)n1", "µM", 0.024]
]}

---

Each item that follows carries a reported solubility kinetic.
# ASSAY COMMENT: Kinetic solubility of compound at pH 7.4
# Assay type: physicochemical
# CONDITION LABEL: buffer, read-out: Kinetic_solubility
MEASURED ATTRIBUTE: solubility kinetic (µM)

{"columns": ["SMI", "MEASURED ATTRIBUTE", "READING UNIT", "QUANTITATIVE RESULT"],
 "data": [
  ["C[C@@]1(F)CNC[C@@H](Nc2nccc(-c3cccnc3Oc3cc(F)c(NS(=O)(=O)Cc4ccccc4)c(F)c3F)n2)C1", "solubility kinetic", "µM", 46],
  ["O=S(=O)(Cc1ccccc1)Nc1c(F)cc(Oc2ncccc2-c2ccnc(N[C@@H]3CNC[C@H](CF)C3)n2)c(F)c1F", "solubility kinetic", "µM", 28],
  ["O=S(=O)(Cc1ccccc1)Nc1c(F)cc(Oc2ncccc2-c2ccnc(N[C@@H]3CNC[C@@H](F)C3)n2)c(F)c1F", "solubility kinetic", "µM", 65]
]}
